Parameter scaled log2 fold change: see the listing below.
B1: library; numbered along this chain (parent)
chain: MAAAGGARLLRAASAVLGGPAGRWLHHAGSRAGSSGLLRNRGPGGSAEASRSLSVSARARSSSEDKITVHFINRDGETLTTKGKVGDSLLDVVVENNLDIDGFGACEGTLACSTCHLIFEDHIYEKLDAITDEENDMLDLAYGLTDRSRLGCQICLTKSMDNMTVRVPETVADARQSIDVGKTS

Variants of: B1
testProtocol: scaled log2 fold change in cell abundance, elesclomol vs control (0 = silent mean, 1 = nonsense mean) (scaled log2 ratio); higher = higher viability under elesclomol (loss of FDX1 cuproptosis function);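 also: variant abundance is its share of total variant reads in each endpoint sample, from next-generation sequencing of the integrated ORF PCR-amplified out of genomic DNA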
testConditions: with HEK293T FDX1 KO; elesclomol 40 nM; glucose 10 mM; 11 days
Response field accepts a number only; no unit should be typed.

Answered cases to consult:
[[record]]
variantdescription = "K158L"
quantityname = "scaled log2 fold change"
reported = -0.122

[[record]]
variantdescription = "R51K"
quantityname = "scaled log2 fold change"
reported = -1.33

[[record]]
variantdescription = "S113Q"
quantityname = "scaled log2 fold change"
reported = -0.137

[[record]]
variantdescription = "G108H"
quantityname = "scaled log2 fold change"
reported = 0.224

[[record]]
variantdescription = "V167K"
quantityname = "scaled log2 fold change"
reported = 0.00856


Req: Using the record for S159K , report its scaled log2 fold change.
Resp: -0.162
